Let's look at some molecules and their measured growth.
Test system: OVCAR-8 ovarian
Experiment: NCI-60 one-dose screen, 48 h (100 = growth as untreated, 0 = no growth, -100 = all killed)
Conditions: 10 µM unless noted
This is part of a sample that, as a whole, favours compounds with a hit. Of some 83,000 tested, about 20% had one in any assay.
Reply with just the number (in %).

molecule: COc1ccc(C2CC(c3cc(OC)c(OC)c(OC)c3)=NN2C(C)=O)cc1OCC(=O)Nc1nc2ccc(C(F)(F)F)cc2s1 (centres undefined)
subject_of_test: OVCAR-8 ovarian
growth (%): 62.3

molecule: CCCC[C@@H](C=O)NC(=O)[C@H](CC(C)C)NC(=O)[C@H](CC(C)C)NC(=O)OCc1ccccc1
subject_of_test: OVCAR-8 ovarian
growth (%): 18.8

molecule: COCCCNc1nc(NC(=O)c2cc(OC)cc(OC)c2)cc(-c2cccnc2)n1
subject_of_test: OVCAR-8 ovarian
growth (%): 79.3

molecule: COc1cc2c(c(Br)c1N)-c1cc(Br)c(N)cc1C2=O
subject_of_test: OVCAR-8 ovarian
growth (%): 29.1

molecule: CC1=CC[C@@H]2C(C)(C)[C@@H](O)CC[C@@]2(C)[C@@H]1COc1ccc2ccc(=O)oc2c1
subject_of_test: OVCAR-8 ovarian
growth (%): 30.5

molecule: CCOC(=O)C(=Cc1ccccc1[N+](=O)[O-])C(=O)OCC
subject_of_test: OVCAR-8 ovarian
growth (%): 12.2

stdin: Can you share its growth? I mean this molecule: CCCCC1COc2cccc3c2N1C=C/C3=C\C(=O)n1ccc2ccccc21 (centres undefined)
stdout: 91.8

stdin: Would you kindly share the measured growth for CCn1cc(-c2[nH]c(=S)ncc2-c2ccc(Cl)cc2)c(-c2ccc(Br)cc2)n1 ?
stdout: 86.9

stdin: Quick one: growth of Nn1c(Nc2ccc(S(=O)(=O)Nc3ncccn3)cc2)nnc(/C=C/c2c(O)ccc3ccccc23)c1=O ?
stdout: 93.4

###

Test system: SK-MEL-2 melanoma
Assay: NCI-60 one-dose screen, 48 h
Conditions: 10 µM unless noted
This is part of a sample that, as a whole, favours compounds with a hit. Of some 83,000 tested, about 20% had one in any assay. Active and inactive are the calls of the source. How the source made its calls: active means growth percent below 10; inactive means the rest.
Respond with a class label; see class 1 = active, class 0 = inactive

compound: C=C(C)[C@@H]1CC[C@]2(C(N)=O)CC[C@]3(C)[C@H](CC[C@@H]4[C@@]5(C)C/C(=C/c6cccnc6)C(=O)C(C)(C)[C@@H]5CC[C@]43C)[C@@H]12
class_name: class 1

stdin: What is the recorded call for this compound in the test? COc1ccc(C(C(=O)O)c2ccc(OC)cc2)cc1
stdout: class 0

stdin: Hello, I am checking results. What call was entered for COCCCNc1nc(NC(=O)c2cc(Br)cc(C(F)(F)F)c2)cc(-c2cccnc2)n1 ?
stdout: class 0

stdin: So what was the verdict on COc1ccc(C2CC(c3ccc4ccccc4c3)=NN2c2nc(O)c(C3=c4cc(OC)ccc4=NC3=O)s2)cc1 (centres undefined) in this test?
stdout: class 1

###

Test system: EKVX NSCLC
Assay: NCI-60 one-dose screen, 48 h (100 = growth as untreated, 0 = no growth, -100 = all killed)
Settings: 10 µM unless noted
This is part of a sample that, as a whole, favours compounds with a hit. Of some 83,000 tested, about 20% had one in any assay. Calls of active or inactive are those of the source. The calls were made as follows: active = growth percent below 10; inactive = the rest.
Form field: growth (one value per entry).

stdin: Look up growth: CC(C)c1ccc(/C=N/N=C(N)N)cc1
stdout: 87.1% (inactive)

stdin: Name the recorded growth for Cc1ccc(S(=O)(=O)NCCCNc2nccc(-c3c(-c4cccc(F)c4)nc4occn34)n2)cc1 .
stdout: 78.7% (inactive)

stdin: Name the recorded growth for COC(=O)[C@@H](NC(=O)NC(=O)NC(=O)CI)C(C)C .
stdout: 95.7% (inactive)

stdin: May I ask what growth has been recorded for COc1ccc(C(=O)/C=C/c2ccccn2)c(O)c1 ?
stdout: 94.2% (inactive)

stdin: Given the molecule CN(C)c1ccc(-c2ccc(-c3ccc(C(=N)N)cc3)s2)cc1 , what is its reported growth?
stdout: 85.9% (inactive)

stdin: # input molecule: C=C(C)[C@@H]1CC[C@]2(COCCCN)CC[C@]3(C)[C@H](CC[C@@H]4[C@@](C)(CCCNCCCN)[C@H](C(=C)C)CC[C@]43C)[C@@H]12 ; wanted: its growth
stdout: -60.8% [100 µM] (active)

stdin: Which measured growth value corresponds to CCOC(=O)c1nn(C2CCCCO2)c2ccc(NS(=O)(=O)c3ccc(C)cc3)cc12 (stereo not drawn) ?
stdout: 102% (inactive)

stdin: // growth lookup, key: COc1ccc(-c2cc(-c3ccc(Cl)cc3)nc(NCCCCNc3ccnc4cc(Cl)ccc34)n2)cc1
stdout: 77.3% (inactive)

stdin: What value of measured growth is listed for C#C[C@]1(O)CC[C@H]2[C@@H]3CC=C4c5nc(N)sc5CC[C@]4(C)[C@H]3CC[C@@]21C ?
stdout: 53.7% (inactive)

stdin: What growth value was documented for this molecule, CCn1cc(-c2cc(-c3ccc(Cl)cc3)nc(N)n2)c(-c2ccc(Br)cc2)n1 ?
stdout: 78.1% (inactive)

stdin: Any idea what growth was measured for CC1(C)CC[C@]2(C(=O)OC(=O)[C@]34CCC(C)(C)C[C@@H]3C3=CC[C@@H]5[C@@]6(C)CCC(=O)C(C)(C)[C@@H]6CC[C@@]5(C)[C@]3(C)CC4)CC[C@]3(C)C(=CC[C@@H]4[C@@]5(C)CCC(=O)C(C)(C)[C@@H]5CC[C@]43C)[C@H]2C1 ?
stdout: 81.3% [100 µM] (inactive)

stdin: # query: growth of entry CN(C)CCCNc1nc(-c2cccc(C(Cl)(Cl)Cl)c2)nc(C(Cl)(Cl)Cl)n1
stdout: 104% (inactive)

stdin: Give the measured growth of Cn1cc(-c2nnc(-c3ccccc3)s2)c2cc(Br)cnc21 .
stdout: 62.6% (inactive)

stdin: Give its growth value. Item: CC(C)=CC/C=C(/C)[C@H]1CC[C@]2(C)[C@@H]1CC[C@@H]1[C@@]3(C)CC/C(=N/O)C(C)(C)[C@@H]3CC[C@]12C
stdout: 72.2% [100 µM] (inactive)

stdin: State the recorded growth for this entry: O=C(Nc1cccc2cccnc12)c1cc(C(=O)c2ccc(Cl)cc2)n2ccc(-c3ccncc3)cc12
stdout: 107% (inactive)
